Reference for the values: patent EP4768505A1

measurementTarget: Human CD79A+CD79B antigen (human) (UniProt P11912)
Sequence (P11912 33-143 limits assumed, chain 1 of 2): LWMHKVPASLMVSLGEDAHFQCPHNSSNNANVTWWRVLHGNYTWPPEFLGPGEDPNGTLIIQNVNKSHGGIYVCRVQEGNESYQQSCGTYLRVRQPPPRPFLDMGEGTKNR
Sequence (P40259 29-159 limits assumed, chain 2 of 2, further chain): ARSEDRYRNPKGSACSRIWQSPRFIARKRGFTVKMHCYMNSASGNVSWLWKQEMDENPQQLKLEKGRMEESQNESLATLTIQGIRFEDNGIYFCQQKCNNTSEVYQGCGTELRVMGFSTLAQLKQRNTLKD
experimentNotes: ELISA on coated antigen, anti-myc detection; 2ug antibody added
quantityName: OD450 nm (OD450)
Numbers only, in OD450.

Consider the worked cases shown below.
anti-CD79B single-domain antibody JYB4 (VHH, Alpaca VHH from a phage library; not shown: His-tag protein at the C-terminal end) VHH: DVQLQESGGGLVQPGGSLRLSCAASGFAFSLYAMSWARQAPGKGLEWVSDIYGDDDSRRNYADSVKGRFTISRDNAKNTVYLQMTNLQPEDTALYYCGKGRDGTRWSAREYEYRGQGTQVTVSS | 0.585
anti-CD79B single-domain antibody JYB10 (VHH, Alpaca VHH from a phage library; ELISA detected with an anti-myc antibody; a myc tag is not described; not shown: His-tag protein at the C-terminal end) VHH: DVQLQESGGGLVQPGGSLSLSCAASISSSSIWVRAWHRQAPGKQRELVAAINNDGQTMYADSVKGRFTISRDNAKTTVSLQMNSLKPEDTAVYYCNVVTPKGHQYWGQGTQVTVSS | 0.554
anti-CD79B single-domain antibody JYB11 (VHH, Alpaca VHH from a phage library; ELISA detected with an anti-myc antibody; a myc tag is not described; not shown: His-tag protein at the C-terminal end) VHH: DVQLQESGGGLVQPGGSLSLSCAASMSSPSLWVRAWHRQAPGKQRELVAAINSDGQTMYADSVKGRFTISRDNAKTLVSLQMDSLKPEDTAVYYCNVVTPRGQQYWGQGTQVTVSS | 0.519

Respectfully, I request OD450 nm for each entry included below.
1. anti-CD79B single-domain antibody JYB8 (VHH, not shown: small tags and cut ends) VHH: DVQLQESGGGLMQPGGSLSLTCTASISSLSIWVRAWHRQAPGKQRELVAAINSDGQTMYADSVKGRFTISRDSAKTTVSLQMDSLKPEDTAVYYCNVVTPKGQQYWGQGTQVTVSS
2. anti-CD79B single-domain antibody JYB14 (VHH, Alpaca VHH from a phage library; ELISA detected with an anti-myc antibody; a myc tag is not described; not shown: His-tag protein at the C-terminal end) VHH: DVQLQESGGGLVQPGGSLSLTCTASISSLTIWVRAWHRQAPGKQRELVAAINSDGQTMYADSVKGRFTISRDNAKTTVSLQMDSLKPEDTAVYYCNVVTPNGQQYWGQGTQVTVSS

Output:
1: 0.802; 2: 0.634
